Source of measurements: patent US6528487B1

tested.system: GMP-140 receptors on the surface of leukocytes (human)
protocol.summary: neutrophil adhesion to GMP-140 coated wells, peptide preincubated with neutrophils, myeloperoxidase read-out
Non-standard residues stand in square brackets, D forms with d. No end group written: not given here. *: point of attachment. Fmoc = O=C(OCC1c2ccccc2-c2ccccc21)*
Reported percent inhibition of neutrophil binding to GMP-140 at 0.5 mM peptide values are given for each entry in this list.
value.type: percent inhibition of neutrophil binding to GMP-140 at 0.5 mM peptide (%)

[[record]]
binder = "YKNNKTWTWV-NH2"
data_value = 98

[[record]]
binder = "RKNNKTWT-NH2 [RKNNKTWT-NH2]"
data_value = 23

[[record]]
binder = "RKVNNVWVWV-NH2"
data_value = 102

[[record]]
binder = "Ac-RKNNKTWTWV-NH2 [Ac-…-NH2]"
data_value = 50

[[record]]
binder = "RKIGGIWTWV-NH2"
data_value = 103

[[record]]
binder = "R[dK]IGGIWTWV-NH2 (N-terminus assumed; SMILES CC[C@H](C)[C@H](NC(=O)CNC(=O)CNC(=O)[C@@H](NC(=O)[C@@H](CCCCN)NC(=O)[C@@H](N)CCCNC(=N)N)[C@@H](C)CC)C(=O)N[C@@H](Cc1c[nH]c2ccccc12)C(=O)N[C@H](C(=O)N[C@@H](Cc1c[nH]c2ccccc12)C(=O)N[C@H](C(N)=O)C(C)C)[C@@H](C)O) [RkIGGIWTWV-NH2]"
data_value = 88

[[record]]
binder = "Fmoc-NNKTW-NH2 (SMILES C[C@@H](O)[C@H](NC(=O)[C@H](CCCCN)NC(=O)[C@H](CC(N)=O)NC(=O)[C@H](CC(N)=O)NC(=O)OCC1c2ccccc2-c2ccccc21)C(=O)N[C@@H](Cc1c[nH]c2ccccc12)C(N)=O) [FMOC-NNKTW-NH2]"
data_value = 100

[[record]]
binder = "KWKWNRTNVT-NH2 […-NH2 (control peptide)]"
data_value = 0

[[record]]
binder = "RKNNGTWTWV-NH2"
data_value = 99

[[record]]
binder = "[dR]KIGGIWTWV-NH2 (N-terminus assumed; SMILES CC[C@H](C)[C@H](NC(=O)CNC(=O)CNC(=O)[C@@H](NC(=O)[C@H](CCCCN)NC(=O)[C@H](N)CCCNC(=N)N)[C@@H](C)CC)C(=O)N[C@@H](Cc1c[nH]c2ccccc12)C(=O)N[C@H](C(=O)N[C@@H](Cc1c[nH]c2ccccc12)C(=O)N[C@H](C(N)=O)C(C)C)[C@@H](C)O) [r…-NH2]"
data_value = 96

[[record]]
binder = "RKVNNVWVWV […]"
data_value = 98

[[record]]
binder = "RENNKTWTWV-NH2"
data_value = 94

[[record]]
binder = "RKNNKTWTWE-NH2"
data_value = 20

[[record]]
binder = "RKNNKTW-NH2 [RKNNKTW-NH2]"
data_value = 53

